This collection of values is drawn from ChEMBL document CHEMBL3991601.

Record: Kd reported on Receptor-interacting serine/threonine-protein kinase 2 (Homo sapiens).
Sequence (O43353 whole entry): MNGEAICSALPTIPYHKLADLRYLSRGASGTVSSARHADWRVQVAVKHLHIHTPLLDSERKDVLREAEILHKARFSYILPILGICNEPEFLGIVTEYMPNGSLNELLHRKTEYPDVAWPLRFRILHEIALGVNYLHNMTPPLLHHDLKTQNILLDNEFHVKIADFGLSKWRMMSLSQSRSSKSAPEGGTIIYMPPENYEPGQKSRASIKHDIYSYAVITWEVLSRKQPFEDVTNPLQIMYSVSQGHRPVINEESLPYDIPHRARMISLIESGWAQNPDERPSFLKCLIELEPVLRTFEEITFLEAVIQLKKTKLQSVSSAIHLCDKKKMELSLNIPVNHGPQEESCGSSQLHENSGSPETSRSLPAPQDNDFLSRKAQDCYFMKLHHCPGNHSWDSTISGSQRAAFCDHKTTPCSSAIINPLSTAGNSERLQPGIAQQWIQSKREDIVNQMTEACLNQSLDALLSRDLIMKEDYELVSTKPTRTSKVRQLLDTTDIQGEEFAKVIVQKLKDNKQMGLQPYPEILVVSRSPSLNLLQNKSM
The source made the active and inactive calls.

INSERT INTO results (structure, target_under_test, reported_endpoint, value_observed) VALUES
  ('COCc1c(-c2ccc(NC(=O)Nc3cc(C(F)(F)F)ccc3F)c(F)c2)c2c(N)ncnn2c1CN1CCOCC1', 'Receptor-interacting serine/threonine-protein kinase 2 (Homo sapiens)', 'Kd', '> 30 µM (inactive)');

Hello, I would appreciate it if you could give Kd for each entry below.
1. C#Cc1cccc(Nc2ncnc3cc(OC)c(OCCCCCCC(=O)NO)cc23)c1
2. Nc1ncnc2c1c(-c1cccc(OCc3ccccc3)c1)cn2[C@H]1C[C@@H](CN2CCC2)C1
3. FC(F)(F)c1ccc(/C=C/c2nc(COc3ccc(CCCCn4ccnn4)cc3)co2)cc1

Solution:
1.09 µM (active)
0.355 µM (active)
> 30 µM (inactive)
